The measurements presented in this section are drawn from PubChem BioAssay.

The entries below are paired with their reported NADPH fluorescence slope.
Target: Voltage-gated potassium channel subunit beta-2 (Rattus norvegicus)
Test: enhancers of rat Kvbeta2 NADPH turnover – biochemical, NADPH fluorescence, primary screen (AID 623);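 further: fluorescence intensity change per second fitted from 20 to 320 s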
Conditions: Recombinant KvBeta, NADPH fluorescence decrease slope, 10 min; at 10 µM; hits give low values
Hey, just send me the number, nothing else.

Any idea what NADPH fluorescence slope came out for "O=C(Nc1cc(C(F)(F)F)ccc1N1CCCC1)c1ccc2c(c1)OCO2" on Voltage-gated potassium channel subunit beta-2 (Rattus norvegicus)?
-2e-05

Any idea what NADPH fluorescence slope came out for "Clc1ccc(OCCCn2cncn2)cc1Cl" on Voltage-gated potassium channel subunit beta-2 (Rattus norvegicus)?
5.3e-06

Any idea what NADPH fluorescence slope came out for "CC(=O)Nc1ccc(-c2nn[nH]n2)cc1Cl" on Voltage-gated potassium channel subunit beta-2 (Rattus norvegicus)?
-2.3e-05

Any idea what NADPH fluorescence slope came out for "COc1ccc(CCNC(=O)c2cc(C(C)C)on2)cc1OC" on Voltage-gated potassium channel subunit beta-2 (Rattus norvegicus)?
-1.2e-05

Any idea what NADPH fluorescence slope came out for "CCOC(=O)N1CCN(S(=O)(=O)c2cc(C)c(C)cc2C)CC1" on Voltage-gated potassium channel subunit beta-2 (Rattus norvegicus)?
-1.8e-05

Any idea what NADPH fluorescence slope came out for "CCS(=O)(=O)c1nc2ccccc2n1CC(=O)N1CCCCC1" on Voltage-gated potassium channel subunit beta-2 (Rattus norvegicus)?
-2.1e-05

Any idea what NADPH fluorescence slope came out for "Cn1c(=O)c2c(nc(N3CCN(c4ccccc4)CC3)n2CCCc2ccccc2)n(C)c1=O" on Voltage-gated potassium channel subunit beta-2 (Rattus norvegicus)?
-3.2e-05

Any idea what NADPH fluorescence slope came out for O=C1NC(=O)C(CC(=O)N(c2ccccc2)C2(C(=O)NC3CCCC3)CCCCC2)N1 (centres undefined) on Voltage-gated potassium channel subunit beta-2 (Rattus norvegicus)?
-1.3e-05

Any idea what NADPH fluorescence slope came out for "CC(=O)N(CCc1ccccc1C)Cc1cc2cc3c(cc2[nH]c1=O)OCO3" on Voltage-gated potassium channel subunit beta-2 (Rattus norvegicus)?
-6.2e-05

Any idea what NADPH fluorescence slope came out for "Cc1nc(NC2=NCN(CCc3ccccc3)CN2)nc2c(C)cccc12" on Voltage-gated potassium channel subunit beta-2 (Rattus norvegicus)?
-1.3e-05

Any idea what NADPH fluorescence slope came out for CC(=O)Nc1ccc(S(=O)(=O)N2CCSC2c2ccccc2)cc1 (centres undefined) on Voltage-gated potassium channel subunit beta-2 (Rattus norvegicus)?
-3.6e-05

Any idea what NADPH fluorescence slope came out for Cn1c(C(=O)OC(C(=O)NC2CCCC2)c2cccnc2)cc2sccc21 (centres undefined) on Voltage-gated potassium channel subunit beta-2 (Rattus norvegicus)?
-5.4e-05

Any idea what NADPH fluorescence slope came out for NC1=NC(c2ccc(Br)cc2)n2c(nc3ccccc32)N1 (centres undefined) on Voltage-gated potassium channel subunit beta-2 (Rattus norvegicus)?
-1.5e-06

Any idea what NADPH fluorescence slope came out for "CC(=O)n1nc(-c2ccco2)nc1SCc1ccccc1" on Voltage-gated potassium channel subunit beta-2 (Rattus norvegicus)?
1.3e-05

Any idea what NADPH fluorescence slope came out for "O=S(=O)(c1ccc2c(c1)nc1n2CCC1)N1CCOCC1" on Voltage-gated potassium channel subunit beta-2 (Rattus norvegicus)?
2.5e-05

Any idea what NADPH fluorescence slope came out for "CCOC(=O)CSc1nc2sc(C)c(C)c2c(=O)[nH]1" on Voltage-gated potassium channel subunit beta-2 (Rattus norvegicus)?
-5e-06

Any idea what NADPH fluorescence slope came out for Cc1ccc(S(=O)(=O)NCCNC(=O)C2CCCNC2=O)cc1 (centres undefined) on Voltage-gated potassium channel subunit beta-2 (Rattus norvegicus)?
-7e-05

Any idea what NADPH fluorescence slope came out for "Cc1cc2c(=O)n(Cc3ccco3)c(SCC(=O)NCc3ccco3)nc2s1" on Voltage-gated potassium channel subunit beta-2 (Rattus norvegicus)?
1.9e-05
